target: UniProt Q05469
Sequence (Q05469 1-1076): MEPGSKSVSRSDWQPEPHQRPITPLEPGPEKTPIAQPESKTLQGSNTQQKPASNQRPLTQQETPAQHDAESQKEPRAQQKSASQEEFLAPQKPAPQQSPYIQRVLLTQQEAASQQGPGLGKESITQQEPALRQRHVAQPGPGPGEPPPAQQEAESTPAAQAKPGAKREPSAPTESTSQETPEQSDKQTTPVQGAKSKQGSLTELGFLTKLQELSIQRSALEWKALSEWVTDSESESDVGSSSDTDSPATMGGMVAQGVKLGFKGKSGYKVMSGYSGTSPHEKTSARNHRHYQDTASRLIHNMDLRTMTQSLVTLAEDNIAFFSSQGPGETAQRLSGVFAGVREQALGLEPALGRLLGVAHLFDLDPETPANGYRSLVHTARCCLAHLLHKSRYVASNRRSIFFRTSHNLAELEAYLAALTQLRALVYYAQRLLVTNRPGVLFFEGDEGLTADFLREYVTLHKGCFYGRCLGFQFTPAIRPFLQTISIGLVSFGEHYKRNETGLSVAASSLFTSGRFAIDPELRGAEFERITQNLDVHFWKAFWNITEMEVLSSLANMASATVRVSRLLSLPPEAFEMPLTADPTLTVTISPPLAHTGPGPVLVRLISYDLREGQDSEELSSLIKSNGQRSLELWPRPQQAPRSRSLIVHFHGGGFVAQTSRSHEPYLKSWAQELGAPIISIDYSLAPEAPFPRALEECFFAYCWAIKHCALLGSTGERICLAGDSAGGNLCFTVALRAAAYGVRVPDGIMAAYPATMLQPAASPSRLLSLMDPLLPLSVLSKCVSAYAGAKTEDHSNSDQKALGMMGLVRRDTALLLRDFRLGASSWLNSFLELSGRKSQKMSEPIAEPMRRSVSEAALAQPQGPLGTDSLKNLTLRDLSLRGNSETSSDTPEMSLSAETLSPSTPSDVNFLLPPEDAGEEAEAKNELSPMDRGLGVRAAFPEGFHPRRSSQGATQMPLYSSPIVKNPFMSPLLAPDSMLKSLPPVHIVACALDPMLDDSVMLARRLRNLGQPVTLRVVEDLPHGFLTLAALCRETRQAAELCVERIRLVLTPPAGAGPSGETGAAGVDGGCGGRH
Counter-ions that a name gives are not always drawn.
property: IC50 (µM)

{"molecule": "CC(C)c1ccc(NC(=O)C2(N)CCN(C(=O)Nc3ccc(Cl)cc3)CC2)cc1 [Example 108, hydrochloride]", "target": "UniProt Q05469", "unit.abbrev": "µM", "numeric.readout": 0.1}
{"molecule": "CCc1ccc(NC(=O)C2(N)CCN(S(=O)(=O)c3ccccc3Cl)CC2)cc1", "target": "UniProt Q05469", "unit.abbrev": "µM", "numeric.readout": 0.04}

(P) CC(C)c1ccc(NC(=O)C2(N)CCN(Cc3ccc(C(F)(F)F)cc3)CC2)cc1 [Example 112, hydrochloride]
(Q) CCc1ccc(NC(=O)C2(N)CCN(S(=O)(=O)c3ccccc3C(F)(F)F)CC2)cc1
Task item: For the two items P and Q , which reports the higher IC50 value? I would appreciate it if you answered with the label of your choice.
Reply: P
(P: 0.3 µM, Q: 0.13 µM)

(1) CCc1ccc(NC(=O)C2(N)CCN(C(c3ccccc3)c3ccccc3)CC2)cc1
(2) CC(C)(C)CS(=O)(=O)N1CCC(O)(C(=O)Nc2ccc(OC(F)(F)F)cc2)CC1
(3) CC(C)c1ccc(NC(=O)C2(N)CCN(C(=O)c3ccccc3Cl)CC2)cc1
Task item: Order each entry by recorded IC50, climbing from the minimum. To answer, arrange all of the labels according to the requested order.
Reply: 1, 3, 2
(1: 0.15 µM, 3: 0.23 µM, 2: 0.33 µM)

(a) Cc1ccc(S(=O)(=O)N2CCC(O)(C(=O)Nc3ccc(C(C)C)cc3)CC2)cc1
(b) CC(C)(C)c1ccc(NC(=O)N2CCC(N)(C(=O)Nc3ccc(F)cc3)CC2)cc1 [Example 87, hydrochloride]
Task item: For the two items a and b , which reports the higher IC50 value? I would appreciate it if you answered with the label of your choice.
Reply: b
(b: 0.78 µM, a: 0.21 µM)

Values were extracted from patent US8399676B2.
